# experimentalTarget: T1, Ala mutant having 3-amino acid substitution, SEQ ID NO: 46
# T1 peptide: EENMDDAAAQDEMEIGY
# assayName: ELISA, coated peptide
class 1 if OD 490/630 nm is below 0.04. class 0 if not; exact matches included in class 0.

Before answering, review these 4 worked examples.
INSERT INTO results (binder, assignedlabel) VALUES
  ('H7 (antibody, V domains shown, Chicken variable regions in a mouse chimeric antibody (IgG1); also called anti-PAD4 antibody H7) VH: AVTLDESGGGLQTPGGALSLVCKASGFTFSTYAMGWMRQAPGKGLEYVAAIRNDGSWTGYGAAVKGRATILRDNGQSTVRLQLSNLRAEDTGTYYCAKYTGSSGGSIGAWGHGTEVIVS VL: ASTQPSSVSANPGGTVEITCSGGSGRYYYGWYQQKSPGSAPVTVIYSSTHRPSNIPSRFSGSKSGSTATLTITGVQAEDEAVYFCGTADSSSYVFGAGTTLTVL', 'class 0'),
  ('G9 (antibody, V domains shown, Chicken variable regions in a mouse chimeric antibody (IgG1); also called anti-PAD4 antibody G9) VH: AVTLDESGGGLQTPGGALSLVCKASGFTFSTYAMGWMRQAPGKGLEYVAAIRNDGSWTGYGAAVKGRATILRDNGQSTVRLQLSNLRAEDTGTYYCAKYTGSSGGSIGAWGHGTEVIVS VL: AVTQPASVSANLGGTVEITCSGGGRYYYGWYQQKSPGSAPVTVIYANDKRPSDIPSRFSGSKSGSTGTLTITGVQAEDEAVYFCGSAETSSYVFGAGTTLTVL', 'class 0'),
  ('G6 (antibody, V domains shown, Chicken variable regions in a mouse chimeric antibody (IgG1); also called anti-PAD4 antibody G6) VH: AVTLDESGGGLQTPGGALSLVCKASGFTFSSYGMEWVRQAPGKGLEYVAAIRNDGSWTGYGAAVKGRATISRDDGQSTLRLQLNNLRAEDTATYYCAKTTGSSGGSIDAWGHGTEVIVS VL: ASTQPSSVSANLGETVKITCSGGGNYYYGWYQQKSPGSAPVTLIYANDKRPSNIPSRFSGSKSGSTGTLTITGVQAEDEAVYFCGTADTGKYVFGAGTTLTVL', 'class 0'),
  ('E9 (antibody, V domains shown, Chicken variable regions in a mouse chimeric antibody (IgG1); also called anti-PAD4 antibody E9) VH: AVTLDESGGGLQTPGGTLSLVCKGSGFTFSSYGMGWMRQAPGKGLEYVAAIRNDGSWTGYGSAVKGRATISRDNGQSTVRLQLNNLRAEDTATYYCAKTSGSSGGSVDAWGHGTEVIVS VL: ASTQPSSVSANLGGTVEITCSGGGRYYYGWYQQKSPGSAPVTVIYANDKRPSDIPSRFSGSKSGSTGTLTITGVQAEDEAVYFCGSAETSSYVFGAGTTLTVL', 'class 1');

Next, consider the following binder.
Report whether reported OD 490/630 nm is lower than 0.04 (strictly) for A11 (antibody, V domains shown, Chicken variable regions in a mouse chimeric antibody (IgG1); also called anti-PAD4 antibody A11) VH: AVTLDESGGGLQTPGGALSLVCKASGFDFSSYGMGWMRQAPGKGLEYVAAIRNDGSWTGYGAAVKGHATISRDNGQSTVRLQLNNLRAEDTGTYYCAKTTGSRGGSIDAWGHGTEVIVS VL: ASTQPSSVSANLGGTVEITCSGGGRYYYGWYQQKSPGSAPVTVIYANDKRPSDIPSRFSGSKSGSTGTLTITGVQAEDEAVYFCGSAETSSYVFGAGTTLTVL
class 0
